Reported IC50 values for the following compounds.
- Tested on: An. gambiae larval ACE (soluble peptidyl dipeptidase activity; one or both of AnoACE2 and AnoACE3)
- Construct: native; 55,000 g supernatant of whole 3rd instar larval homogenate, not purified; AnoACE2 and/or AnoACE3 inferred by the authors from soluble activity and larval expression
- Assay Summary: fluorogenic peptidase assay, larval high-speed supernatant
- Format: biochemical
- Cond: substrate Abz-Phe-Arg-Lys(Dnp)-Pro-OH about 25 uM, pH 7.5, 50 mM NaCl, 10 uM ZnCl2, 20 C, 10 min pre-incubation; read-out: Anopheles gambiae / IC50

O=C(O)[C@@H]1C[C@@H](C2CCCCC2)CN1C(=O)CP(=O)(O)CCCCc1ccccc1 [fosinoprilat]; 35.2 nM

Turning now to a further compound:
Quick one: IC50 for C[C@H](CS)C(=O)N1CCC[C@H]1C(=O)O [captopril] ?
16.7 nM

----------
- Tested on: Ae. aegypti larval ACE (soluble peptidyl dipeptidase activity)
- Construct: native; 55,000 g supernatant of whole 3rd instar larval homogenate, not purified; gene(s) not identified for this species
- Assay Summary: fluorogenic peptidase assay, larval high-speed supernatant
- Format: biochemical
- Cond: substrate Abz-Phe-Arg-Lys(Dnp)-Pro-OH about 25 uM, pH 7.5, 50 mM NaCl, 10 uM ZnCl2, 20 C, 10 min pre-incubation; pro-drug ester of fosinoprilat; read-out: Aedes aegypti / IC50
Property Measured: IC50 (nM)
Report only the number, with the unit nM understood.

Quick one: IC50 for `CCC(=O)O[C@@H](O[P@](=O)(CCCCc1ccccc1)CC(=O)N1C[C@H](C2CCCCC2)C[C@H]1C(=O)O)C(C)C` ?
373

The reported measurements were obtained from paper PMC5366949.
